Taken from paper PMC3718762.

- SYSTEM TESTED: EWS-FLI1
- METHOD SUMMARY: AlphaScreen proximity assay, binding of recombinant EWS-FLI1 to cognate DNA oligo
- RUN PARAMETERS: read-out: IC50 EWS-FLI1, disruption of recombinant EWS-FLI1 binding to DNA
Starred links: 1 amine or outer side, 2 acyl side, 3 side chain; linkers in the order of their positions; H or OH if unused. Positions of bridges follow the written chain, without caps; N, C: chain ends. Non-standard residues stand in square brackets, D forms with d. Residues, ends and D or L forms follow the SMILES beside them. Chains are numbered I, II in the order given. Actinocin(9to1) = Cc1c2oc3c(C)ccc(C(=O)[*:1])c3nc-2c(C(=O)[*:2])c(N)c1=O; NMeV = CN[C@H](C(=O)O)C(C)C; Sar = CNCC(=O)O
Each entry below carries its recorded pIC50.
In textbook form, pIC50 equals minus log to base ten of the concentration in mol/L.

COMPOUND	SYSTEM TESTED	pIC50
O=c1c2ccccc2[se]n1-c1ccccc1	EWS-FLI1	6.20
CC(C)[C@H](CO)Nc1nc(Nc2cc(N)cc(Cl)c2)c2ncn(C(C)C)c2n1	EWS-FLI1	5.74
CC(=O)[O][Hg][c]1ccccc1 [Phenylmericuric Acetate]	EWS-FLI1	7.80

Qu. Return pIC50 (reported value) for this compound: COc1cccc2c1C(=O)c1c(O)c3c(c(O)c1C2=O)C[C@@](O)(C(C)=O)C[C@@H]3O[C@H]1C[C@H](N)[C@H](O)[C@H](C)O1
Ans. 5.35

Qu. Return pIC50 (reported value) for this compound: Cc1c2oc3c(C)ccc(C(=O)N[C@@H]4C(=O)N[C@H](C(C)C)C(=O)N5CCC[C@H]5C(=O)N(C)CC(=O)N(C)[C@@H](C(C)C)C(=O)O[C@@H]4C)c3nc-2c(C(=O)N[C@@H]2C(=O)N[C@H](C(C)C)C(=O)N3CCC[C@H]3C(=O)N(C)CC(=O)N(C)[C@@H](C(C)C)C(=O)O[C@@H]2C)c(N)c1=O [Actinomycin D] (I: T[dV]P[Sar][NMeV] / II: T[dV]P[Sar][NMeV]; ester I:1-I:C, II:1-II:C; linker I:N-II:N via Actinocin(9to1))
Ans. 7.35
